# assayed_target: GST-KIAA807 [GST: P08515]
# Sequence (P08515 whole entry): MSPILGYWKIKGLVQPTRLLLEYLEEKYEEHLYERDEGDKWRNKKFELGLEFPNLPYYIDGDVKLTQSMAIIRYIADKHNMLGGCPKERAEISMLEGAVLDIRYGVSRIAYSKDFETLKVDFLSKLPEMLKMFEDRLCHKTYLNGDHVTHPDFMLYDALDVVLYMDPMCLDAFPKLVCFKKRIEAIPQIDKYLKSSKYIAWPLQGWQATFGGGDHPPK
# assay_name: G' assay; note: key of the grades not given here
Provide the recorded Classification for the entries that follow.

GET /value?item= TFAAGFNSTGLPHSTTRV (modifications not checked) [Neuroligin] &field=Classification returns 3 A450 class

GET /value?item= NSYVRDDAIFIKAIVDLTGL (modifications not checked) [TRAF2] &field=Classification returns 2 A450 class

GET /value?item= QISPGGLEPPSEKHFRETEV (modifications not checked) [TAX] &field=Classification returns 5 A450 class

GET /value?item= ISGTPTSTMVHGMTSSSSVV (modifications not checked) [Clasp-2] &field=Classification returns 1 A450 class

GET /value?item= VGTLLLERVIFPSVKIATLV (modifications not checked) [AdenoE4 typ9] &field=Classification returns 4 A450 class

GET /value?item= NGGFAVDKSDTISFTQTSQF (modifications not checked) [glutamate transporter 3] &field=Classification returns 1 A450 class

GET /value?item= QDFRRAFRRILARPWTQTAW (modifications not checked) [alpha-2B Adrenergic receptor] &field=Classification returns 4 A450 class
